Please provide measured Liver Microsome Stability (Multiple Species): Mouse - % Remaining after 30 min w/NADPH for the entries that follow.
assay: Liver Microsome Stability Assay (mouse); conditions: mouse liver microsomes, with NADPH, 1.0 uM compound
Please give a number only; it is taken to be in %.

Lab note: CC(=O)N1CCC(Oc2ccc(N3CCC[C@@H]3c3csc(NC(=O)c4cc(C)cn4Cc4ccnc(F)c4)n3)cc2)CC1 [Compound A165] gave Liver Microsome Stability (Multiple Species): Mouse - % Remaining after 30 min w/NADPH of 30.7

Lab note: CC(C)c1nc(/C=C/c2csc(NC(=O)c3cccn3Cc3ccnc(F)c3)n2)cn1C [Compound B67] gave Liver Microsome Stability (Multiple Species): Mouse - % Remaining after 30 min w/NADPH of 2.2

Lab note: CC(=O)N1CCC(Oc2ccc(N3CCC[C@@H]3c3csc(NC(=O)c4cccn4Cc4ccnc(F)c4)n3)cc2)C1 (some centres unmarked) [Compound A79] gave Liver Microsome Stability (Multiple Species): Mouse - % Remaining after 30 min w/NADPH of 5.88

Lab note: O=C(Nc1nc(Cc2ccccn2)cs1)c1cccn1Cc1ccncc1 [Compound E11] gave Liver Microsome Stability (Multiple Species): Mouse - % Remaining after 30 min w/NADPH of 0.36

Lab note: O=C(NC1=NC(/C=C/c2ccccc2)CS1)c1cccn1Cc1ccncc1 (centres unmarked) [Compound E51] gave Liver Microsome Stability (Multiple Species): Mouse - % Remaining after 30 min w/NADPH of 0.08

Lab note: O=C(Nc1nc(/C=C/c2ncc(F)cc2F)cs1)c1cccn1CC1CCOCC1 [Compound D2] gave Liver Microsome Stability (Multiple Species): Mouse - % Remaining after 30 min w/NADPH of 2.76

Lab note: O=C(Nc1nc(/C=C/c2ncoc2C2CCCCC2)cs1)c1cccn1CC1CCOCC1 [Compound D4] gave Liver Microsome Stability (Multiple Species): Mouse - % Remaining after 30 min w/NADPH of 29.8

Lab note: O=C(Nc1nc(C2C3CN(c4ccccn4)CC32)cs1)c1cccn1Cc1ccncc1 (centres unmarked) [Compound E33] gave Liver Microsome Stability (Multiple Species): Mouse - % Remaining after 30 min w/NADPH of 2.58

Lab note: CC(=O)Nc1ccc(N2CCC[C@@H]2c2csc(NC(=O)c3cc(C)cn3Cc3ccnc(F)c3)n2)cc1 [Compound A164] gave Liver Microsome Stability (Multiple Species): Mouse - % Remaining after 30 min w/NADPH of 18.8

Lab note: N#Cc1ccc(Cn2cccc2C(=O)Nc2nc([C@H]3CCCN3c3ccccc3)cs2)cc1 [Compound C50] gave Liver Microsome Stability (Multiple Species): Mouse - % Remaining after 30 min w/NADPH of 54.5

Lab note: N#CC[C@@H]1CC[C@H]1Cn1cccc1C(=O)Nc1nc([C@H]2CCCN2c2ccccc2)cs1 [Compound C18] gave Liver Microsome Stability (Multiple Species): Mouse - % Remaining after 30 min w/NADPH of 0.15

Lab note: Cc1ccc(/C=C/c2csc(NC(=O)c3cccn3Cc3ccncc3)n2)nc1F [Compound B48] gave Liver Microsome Stability (Multiple Species): Mouse - % Remaining after 30 min w/NADPH of 1.17

Lab note: C/C(=C\c1ccc(OC(F)(F)F)cn1)c1csc(NC(=O)c2cccn2Cc2ccncc2)n1 [Compound E2] gave Liver Microsome Stability (Multiple Species): Mouse - % Remaining after 30 min w/NADPH of 28.6

Lab note: O=C(Nc1nc([C@H]2CCCN2c2cccnn2)cs1)c1cccn1Cc1ccncc1 [Compound A29] gave Liver Microsome Stability (Multiple Species): Mouse - % Remaining after 30 min w/NADPH of 1.4

Lab note: NC(=O)c1ccc(N2CCC[C@@H]2c2csc(NC(=O)c3cccn3Cc3ccncc3)n2)cc1 [Compound A19] gave Liver Microsome Stability (Multiple Species): Mouse - % Remaining after 30 min w/NADPH of 3.24

Lab note: COc1ccc(O[C@H]2CC[C@@H](c3csc(NC(=O)c4cccn4Cc4ccncc4)n3)CC2)nc1 [Compound E35] gave Liver Microsome Stability (Multiple Species): Mouse - % Remaining after 30 min w/NADPH of 0.08

Lab note: O=C(O)CCn1cccc1C(=O)Nc1nc([C@H]2CCCN2c2ccccc2)cs1 [Compound C12] gave Liver Microsome Stability (Multiple Species): Mouse - % Remaining after 30 min w/NADPH of 60.4

Lab note: Cc1ccc(/C=C/c2csc(NC(=O)c3cccn3CC3CCOCC3)n2)nc1F [Compound D3] gave Liver Microsome Stability (Multiple Species): Mouse - % Remaining after 30 min w/NADPH of 0.46

Lab note: CC(C)n1ccnc1/C=C/c1csc(NC(=O)c2cccn2Cc2ccnc(F)c2)n1 [Compound B95] gave Liver Microsome Stability (Multiple Species): Mouse - % Remaining after 30 min w/NADPH of 0.08

Lab note: CN(C)CCOc1ccc(N2CCC[C@@H]2c2csc(NC(=O)c3cccn3Cc3ccnc(F)c3)n2)cc1 [Compound A104] gave Liver Microsome Stability (Multiple Species): Mouse - % Remaining after 30 min w/NADPH of 16.5

Lab note: CN1c2ccccc2CCC1/C=C/c1csc(NC(=O)c2cccn2Cc2ccncc2)n1 (centres unmarked) [Compound B8] gave Liver Microsome Stability (Multiple Species): Mouse - % Remaining after 30 min w/NADPH of 5.24

Lab note: N#CCn1cnc(/C=C/c2csc(NC(=O)c3cccn3Cc3ccnc(F)c3)n2)c1 [Compound B112] gave Liver Microsome Stability (Multiple Species): Mouse - % Remaining after 30 min w/NADPH of 66.5

Lab note: O=C(Nc1nc([C@H]2CCCN2c2ccccc2)cs1)c1cccn1CCCCc1nnn[nH]1 [Compound C4] gave Liver Microsome Stability (Multiple Species): Mouse - % Remaining after 30 min w/NADPH of 49.1

Lab note: CC(C)c1ccc(N2CCC[C@@H]2c2csc(NC(=O)c3cccn3Cc3ccncc3)n2)cc1 [Compound A23] gave Liver Microsome Stability (Multiple Species): Mouse - % Remaining after 30 min w/NADPH of 25.3

Lab note: O=C(Nc1nc([C@H]2CCCN2c2ccccc2)cs1)c1cccn1Cc1cccnc1 [Compound E20] gave Liver Microsome Stability (Multiple Species): Mouse - % Remaining after 30 min w/NADPH of 0.82

Lab note: CC(=O)N1CCC(Oc2ccc(N3CCC[C@@H]3c3csc(NC(=O)c4cccn4Cc4ccnc(F)c4)n3)c(C#N)c2)CC1 [Compound A133] gave Liver Microsome Stability (Multiple Species): Mouse - % Remaining after 30 min w/NADPH of 0.98

Lab note: O=C(Nc1ccc(N2CCC[C@@H]2c2csc(NC(=O)c3cccn3Cc3ccnc(F)c3)n2)cc1)OC1CNC1 [Compound A178] gave Liver Microsome Stability (Multiple Species): Mouse - % Remaining after 30 min w/NADPH of 70.6

Lab note: N#Cc1cc(Cn2cccc2C(=O)Nc2nc([C@H]3CCCN3c3ccccc3)cs2)ccn1 [Compound E60] gave Liver Microsome Stability (Multiple Species): Mouse - % Remaining after 30 min w/NADPH of 6.59

Lab note: O=C(Nc1nc(/C=C/c2cn(CCO)cn2)cs1)c1cccn1Cc1ccncc1 [Compound C114] gave Liver Microsome Stability (Multiple Species): Mouse - % Remaining after 30 min w/NADPH of 15.2

Lab note: CC(=O)Nc1ccc(N2CCC[C@@H]2c2csc(NC(=O)c3cccn3Cc3ccnc(F)c3)n2)cc1 [Compound A68] gave Liver Microsome Stability (Multiple Species): Mouse - % Remaining after 30 min w/NADPH of 27.5

Lab note: O=C(Nc1nc(/C=C/c2cn(Cc3ccccc3)cn2)cs1)c1cccn1Cc1ccnc(F)c1 [Compound B105] gave Liver Microsome Stability (Multiple Species): Mouse - % Remaining after 30 min w/NADPH of 4.32

Lab note: NC(=O)CCn1cnc(/C=C/c2csc(NC(=O)c3cccn3Cc3ccnc(F)c3)n2)c1 [Compound B109] gave Liver Microsome Stability (Multiple Species): Mouse - % Remaining after 30 min w/NADPH of 60.2
